- testedTarget: T1, human APRIL protein (human, UniProt O75888 105-250, limits assumed)
- T1 construct: Bought protein; also called recombinant APRIL protein
- T1 sequence (looked up): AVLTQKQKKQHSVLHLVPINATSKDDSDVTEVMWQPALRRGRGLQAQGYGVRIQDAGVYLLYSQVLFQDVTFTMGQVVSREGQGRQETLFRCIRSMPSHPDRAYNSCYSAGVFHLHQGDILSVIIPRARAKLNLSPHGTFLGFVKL
- assayExplanation: ELISA, coated APRIL; antibody 0.534 nM
observedProperty: OD450 nm
Provide a numeric answer; units are not to be included.

{"binder": "111D10D6G3 (antibody, V domains shown, Mouse hybridoma antibody purified on Protein G) VH: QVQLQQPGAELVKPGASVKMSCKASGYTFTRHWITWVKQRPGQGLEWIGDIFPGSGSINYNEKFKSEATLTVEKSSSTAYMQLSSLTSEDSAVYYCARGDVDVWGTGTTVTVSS VL: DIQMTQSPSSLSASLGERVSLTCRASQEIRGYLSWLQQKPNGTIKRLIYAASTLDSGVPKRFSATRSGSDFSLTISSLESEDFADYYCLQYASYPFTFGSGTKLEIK", "quantitativeResult": 0.0525}

We now examine a further binder.
Task: What does the record list as OD450 nm for L9G7 (antibody, human IgG1, V domains shown) VH: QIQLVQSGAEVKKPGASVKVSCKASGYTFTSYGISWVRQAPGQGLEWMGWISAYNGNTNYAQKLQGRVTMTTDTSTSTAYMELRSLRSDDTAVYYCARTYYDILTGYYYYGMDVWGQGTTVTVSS VL: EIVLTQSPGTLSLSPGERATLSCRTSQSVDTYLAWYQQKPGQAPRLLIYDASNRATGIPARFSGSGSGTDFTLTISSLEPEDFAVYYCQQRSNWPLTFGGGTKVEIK ?
Result: 0.0741

Sourced from patent US20210347873A1
